Data provenance: patent US20260109721A1

Viability (%) at different lipid concentrations, mean overview
- Tested on: HepG2 cell line
- assay.procedure: In vitro toxicity study on HepG2 cell line (resazurin, viability and IC50)
- Format: cell-based, human
- test.conditions: HepG2 cells, 800 μM lipid, 48 h post-treatment, resazurin, relative to ethanol vehicle controls
quantity.measured: Viability (%) at different lipid concentrations, mean

{"compound": "CCCCCCCC/C=C\\CCCCCCCC(OCC(CCCCCCCC)SCCCCC)O[Si](C)(C)OCCCCCCN(CCO)CCO (stereo not drawn) [Example 72]", "recorded.result": "103.0%"}
{"compound": "CCCCCCCC/C=C\\CCCCCCCCOC(=O)C(C)(C)CC(OCCCCCCCC/C=C\\CCCCCCCC)O[Si](C)(C)OCCCCCCN(C)CC(O)CO (stereo not drawn) [Example 92]", "recorded.result": "49.2%"}
{"compound": "CCCCCCCCCCCOC(=O)CCCCCN(CCO)CCCCCCCC(=O)OC(CCCCCCCC)CCCCCCCC [SM-102, reference compound]", "recorded.result": "0.0%"}
